Answer each item with its documented koff.
# experimental target: T1, ROR1 extracellular domain Fc fusion:Fc heterodimer, monomer (human)
# T1 construct: Heterodimer of one ROR1 ECD-Fc chain and one Fc chain; also called ROR1 monomer; hROR1 monomeric ECD-Fc fusion protein; not shown: Fc part; Fc alone
# T1 sequence (Q01973 30-406, one chain of several): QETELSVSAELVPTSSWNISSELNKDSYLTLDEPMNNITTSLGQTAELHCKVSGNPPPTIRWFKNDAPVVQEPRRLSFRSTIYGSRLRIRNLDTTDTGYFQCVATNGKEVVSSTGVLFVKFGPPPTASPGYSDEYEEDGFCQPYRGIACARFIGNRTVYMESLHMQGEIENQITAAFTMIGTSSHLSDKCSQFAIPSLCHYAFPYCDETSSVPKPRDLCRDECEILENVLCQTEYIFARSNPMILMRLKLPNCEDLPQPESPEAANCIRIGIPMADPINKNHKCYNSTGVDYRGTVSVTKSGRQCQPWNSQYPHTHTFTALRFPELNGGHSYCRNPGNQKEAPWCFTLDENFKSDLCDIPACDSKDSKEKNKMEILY
# procedure text: SPR, immobilised ROR1 monomer, antibody injected, 1:1 model
Hi, when you answer, please include the unit after the number. Thanks!

Below, 3 binders whose answers are already recorded.
>  <binder>
Antibody 601-119 (antibody, V domains shown) VH: QVQLVQSGGGLVKPGGSLRLSCAASGFTFGTYSMNWVRQAPGKGLEWVSSISSSSSYIYYADSVKGRFTISRDNAKNSLYLQMNSLRAEDTAVYYCARGLGGWTHDAFDIWGQGTTVTVSS VL: QSALTQPASVSASPGQSITISCTGTSSDVGGYNYVTWYQQHPGKAPKLMIYDVSKRPSGVLDRFSGSKSGNTASLTISGLQAEDEADYFCSSYTSSSTLVFGGGTKLTVLG

>  <measured value>
0.095 s⁻¹

$$$$
>  <binder>
Antibody 601-13 (antibody, V domains shown) VH: EVQLVQSGAEVKKPGSSVKVSCKASGGTFSTFAINWVRQAPGQGLEWMGGVIPVSGTEDYSQKFQGRLSLTADESTGTAYMELSSLRSDDTAVYYCARDRSGRDWDYFDYWGQGTLVTVSS VL: DIVMTQSPSSLSASVGDRVTITCQASQDISNYLNWYQQKPGKAPKLLIYDASNLETGVPSRFSGSGSGTDFIFTISSLQPEDIATYYCQQFDNLPYTFGQGTKVEIKR

>  <measured value>
0.0014 s⁻¹

$$$$
>  <binder>
Antibody 601-65 (antibody, V domains shown) VH: QVQLQQSGPGLVKPSQTLSLTCAISGDSVSSNSATWNWIRQSPSRGLEWLGRTYYRSKWYNDYAVSVKSRIIINPDTSKNQFSLQLNSVTPEDTAVYYCARGVRAFDIWGQGTTVTVSS VL: QSVLTQPPSVSGTPGQRVTIFCSGGSNNIGRSSVYWYRQAAGTAPKLLIYKTDQRPSGVPDRFAASKSGASASLAISGLRSEDEADYHCATWDDSLSAVVFGGGTKLTVL

>  <measured value>
0.011 s⁻¹

$$$$

// batch mode: one koff value per listed entry
1. Antibody 601-100 (antibody, V domains shown) VH: EVQLVQSGGGVVQPGGPLRLSCAASGFTFSSYSMNWVRQAPGKGLEWVSSISSSSSYIYYADSVKGRFTISRDNAKNSLYLQMNSLRAEDTAVYYCARGLGGWTHDAFDIWGQGTMVTVSS VL: QSALTQPASVSGSPGQSITISCTGTSRDVGGYDYVSWYQQYPGNAPKLMIYDVSRRPSGVSHRFSASKSGNTASLTISGLQTEDEADYYCSSYTSSSTRVFGGGTKVTVL
2. Antibody 601-28 (antibody, V domains shown) VH: EVQLVQSGGDLVQPGGSLRLSCAASGFTFSSYSMNWVRQAPGKGLEWVSSISSSSSYIYYADSVKGRFTISRDNAKNSLYLQMNSLRAEDTAVYYCARGLGGWTHDAFDIWGQGTTVTVSS VL: QSALTQPASVSGSPGQSITISCTGTSSDVGGYNYVSWYQQHPGKAPKLMIFDVSNRPSGVSNRFSGSKSGNTASLTISGLQAEDEADYYCSSYTSSSTLFGGGTKLTVL

0.0028 s⁻¹
0.012 s⁻¹
